# tested.target: the molecule itself
# procedure.details: 2D crystallisation on lipid monolayers, negative-stain TEM
assay.readout: binding result

AnxA5 double mutant K27E/K191E (natural protein, rat) ALRGTVTDFSGFDGRADAEVLRKAMEGLGTDEDSILNLLTARSNAQRQQIAEEFKTLFGRDLVNDMKSELTGKFEKLIVALMKPSRLYDAYELKHALKGAGTDEKVLTEIIASRTPEELRAIKQAYEEEYGSNLEDDVVGDTSGYYQRMLVVLLQANRDPDTAIDDAQVELDAQALFQAGELKWGTDEEEFITILGTRSVSHLRRVFDKYMTISGFQIEETIDRETSGNLENLLLAVVKSIRSIPAYLAETLYYAMKGAGTDDHTLIRVIVSRSEIDLFNIRKEFRKNFATSLYSMIKGDTSGDYKKALLLLCGGEDD | binds

Every entry's value here was drawn from paper PMC3104517.
